Data origin: BigSolDB 2.1

experimental-parameters: in isopropanol, 288.15 K
measurement-label: solubility (mole fraction)
Answer with the value's number alone.

## Task Sample CC(=O)Nc1ccc(C(=O)O)cc1 — what was its solubility (mole fraction)?
## Result 0.00663

====

experimental-parameters: in sec-butanol, 308.15 K
measurement-label: solubility (mole fraction)
Answer with the value's number alone.

## Task Sample CC(=O)Nc1ccc(C(=O)O)cc1 — what was its solubility (mole fraction)?
## Result 0.0107

====

experimental-parameters: in acetic acid, 298.15 K
measurement-label: solubility (mole fraction)

## Task Sample CC(=O)Nc1ccc(C(=O)O)cc1 — what was its solubility (mole fraction)?
## Result 0.00486

====

experimental-parameters: in acetone, 283.15 K
measurement-label: solubility (mole fraction)
Answer with the value's number alone.

## Task Sample CC(=O)Nc1ccc(C(=O)O)cc1 — what was its solubility (mole fraction)?
## Result 0.00302

====

experimental-parameters: in n-pentanol, 283.15 K
measurement-label: solubility (mole fraction)
Answer with the value's number alone.

## Task Sample CC(=O)Nc1ccc(C(=O)O)cc1 — what was its solubility (mole fraction)?
## Result 0.00507

====

experimental-parameters: in n-pentanol, 318.15 K
measurement-label: solubility (mole fraction)
Answer with the value's number alone.

## Task Sample CC(=O)Nc1ccc(C(=O)O)cc1 — what was its solubility (mole fraction)?
## Result 0.0115

====

experimental-parameters: in isopropanol, 318.15 K
measurement-label: solubility (mole fraction)
Answer with the value's number alone.

## Task Sample CC(=O)Nc1ccc(C(=O)O)cc1 — what was its solubility (mole fraction)?
## Result 0.012

====

experimental-parameters: in n-butanol, 283.15 K
measurement-label: solubility (mole fraction)
Answer with the value's number alone.

## Task Sample CC(=O)Nc1ccc(C(=O)O)cc1 — what was its solubility (mole fraction)?
## Result 0.00486

====

experimental-parameters: in acetone, 318.15 K
measurement-label: solubility (mole fraction)
Answer with the value's number alone.

## Task Sample CC(=O)Nc1ccc(C(=O)O)cc1 — what was its solubility (mole fraction)?
## Result 0.00804

====

experimental-parameters: in acetone, 313.15 K
measurement-label: solubility (mole fraction)

## Task Sample CC(=O)Nc1ccc(C(=O)O)cc1 — what was its solubility (mole fraction)?
## Result 0.00709

====

experimental-parameters: in acetone, 308.15 K
measurement-label: solubility (mole fraction)
Answer with the value's number alone.

## Task Sample CC(=O)Nc1ccc(C(=O)O)cc1 — what was its solubility (mole fraction)?
## Result 0.00635

====

experimental-parameters: in methanol, 298.15 K
measurement-label: solubility (mole fraction)
Answer with the value's number alone.

## Task Sample CC(=O)Nc1ccc(C(=O)O)cc1 — what was its solubility (mole fraction)?
## Result 0.00839

====

experimental-parameters: in isopropanol, 303.15 K
measurement-label: solubility (mole fraction)

## Task Sample CC(=O)Nc1ccc(C(=O)O)cc1 — what was its solubility (mole fraction)?
## Result 0.009

====

experimental-parameters: in n-pentanol, 323.15 K
measurement-label: solubility (mole fraction)
Answer with the value's number alone.

## Task Sample CC(=O)Nc1ccc(C(=O)O)cc1 — what was its solubility (mole fraction)?
## Result 0.0138

====

experimental-parameters: in n-pentanol, 308.15 K
measurement-label: solubility (mole fraction)
Answer with the value's number alone.

## Task Sample CC(=O)Nc1ccc(C(=O)O)cc1 — what was its solubility (mole fraction)?
## Result 0.00844
